# IC50 per record follows
Sequence of the target: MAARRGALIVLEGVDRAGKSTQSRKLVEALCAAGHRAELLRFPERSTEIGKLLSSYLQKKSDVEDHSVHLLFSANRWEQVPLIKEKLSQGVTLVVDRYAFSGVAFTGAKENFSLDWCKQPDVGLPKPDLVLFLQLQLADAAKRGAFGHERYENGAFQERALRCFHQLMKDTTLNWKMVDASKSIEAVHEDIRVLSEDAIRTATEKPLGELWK
reported.property: IC50

Cc1cc(N)nc2sn(CC(=O)N3CCN(C(=O)Cn4sc5nc(N)cc(C)c5c4=O)CC3)c(=O)c12
1100 nM
CCOC(=O)N1CCN(C(=O)Cn2sc3nc(C)cc(C)c3c2=O)CC1 [YMU1, reference compound]
2210 nM
O=C(Cn1sc2ccccc2c1=O)N1CCN(C(=O)Cn2sc3ccccc3c2=O)CC1
450 nM

###

- system.under.test: hTMPK (Homo sapiens)
- test.description: In vitro inhibitory activity against human TMPK at 2 μM
- Type: biochemical
- condition.notes: test compounds at 2 μM concentration
# inhibition at 2 µM per record follows
reported.property: inhibition at 2 µM (%)

CC(C)(C)OC(=O)N1CCN(C(=O)Cn2sc3cc(N=[N+]=[N-])ccc3c2=O)CC1 [I-d-14]
66
CC(C)(C)OC(=O)N1CCN(C(=O)Cn2sc3c(F)cccc3c2=O)CC1 [I-d-8]
25
CC(C)(C)OC(=O)N1CCN(C(=O)Cn2sc3cccc(F)c3c2=O)CC1 [I-d-5]
56
CC(C)(C)OC(=O)N1CCN(C(=O)Cn2sc3cc(C(F)(F)F)ccc3c2=O)CC1 [I-d-12]
84
Cc1cc(C)c2c(=O)n(CC(=O)N3CCN(C(=O)Cn4sc5nc(C)cc(C)c5c4=O)CC3)sc2n1 [I-b-4]
32

###

- system.under.test: hTMPK (Homo sapiens)
- test.description: In vitro inhibitory activity against human TMPK at 2 μM
- Format: biochemical
- condition.notes: test compounds at 2 μM concentration
# inhibition at 2 µM per record follows
reported.property: inhibition at 2 µM (%)

Cc1cc(C)c2c(=O)n(CC(=O)N3CCN(C(=O)Cn4sc5ccccc5c4=O)CC3)sc2n1 [I-b-5]
79
O=C(Cn1sc2ncccc2c1=O)N1CCNCC1 [I-c-1]
75
Cc1cc(C)c2c(=O)n(CC(=O)N3CCNCC3)sc2n1 [I-c-2]
46
Cc1cc(N)nc2sn(CC(=O)N3CCN(C(=O)Cn4sc5nc(N)cc(C)c5c4=O)CC3)c(=O)c12 [I-b-6]
48
CC(C)(C)OC(=O)N1CCN(C(=O)Cn2sc3cc(O[Si](C)(C)C(C)(C)C)ccc3c2=O)CC1 [I-d-17]
80
CCCCCCCCc1cn(-c2ccc3c(=O)n(CC(=O)N4CCN(C(=O)OC(C)(C)C)CC4)sc3c2)nn1 [I-d-18]
78
O=C(Cn1sc2cc(Br)ccc2c1=O)N1CCN(C(=O)Oc2ccc([N+](=O)[O-])cc2)CC1 [I-d-11]
86
O=C(NCC(=O)N1CCN(C(=O)Cn2sc3ccccc3c2=O)CC1)Nc1ccccc1 [I-e-5]
100
O=C(Cn1sc2ccccc2c1=O)N1CCN(C(=O)Cn2sc3ccccc3c2=O)CC1 [I-e-8]
89
O=C(CN=C=S)N1CCN(C(=O)Cn2sc3ccccc3c2=O)CC1 [I-e-4]
63
O=C(Cn1sc2ccccc2c1=O)N1CCN(C(=O)OCc2ccccc2)CC1 [I-d-3]
54
CC(C)(C)OC(=O)N1CCN(C(=O)Cn2sc3cc(F)ccc3c2=O)CC1 [I-d-7]
66
COc1ccc2c(=O)n(CC(=O)N3CCN(C(=O)OC(C)(C)C)CC3)sc2c1 [I-d-15]
51
CCCCNC(=O)NCC(=O)N1CCN(C(=O)Cn2sc3ccccc3c2=O)CC1 [I-e-7]
50
Cc1cc(N)nc2sn(CC(=O)N3CCNCC3)c(=O)c12 [I-c-3]
6
O=C(Cn1sc2ccccc2c1=O)N1CCNCC1 [I-f-1]
34
COc1ccc(NC(=O)NCC(=O)N2CCN(C(=O)Cn3sc4ccccc4c3=O)CC2)cc1 [I-e-6]
55
CC(C)(C)OC(=O)N1CCN(C(=O)Cn2sc3cc(N)ccc3c2=O)CC1 [I-d-13]
39
O=C(CI)N1CCN(C(=O)Cn2sc3ccccc3c2=O)CC1 [I-e-1]
31
O=C(NCC(=O)N1CCN(C(=O)Cn2sc3ncccc3c2=O)CC1)Nc1ccccc1 [I-b-1]
54
CC(C)(C)OC(=O)N1CCN(C(=O)Cn2sc3cc(O)ccc3c2=O)CC1 [I-d-16]
22
CC(C)(C)OC(=O)N1CCN(C(=O)Cn2sc3ccccc3c2=O)CC1 [I-d-2]
100
Cc1cc(N)nc2sn(CC(=O)N3CCN(C(=O)Oc4ccc([N+](=O)[O-])cc4)CC3)c(=O)c12 [I-a-4]
10
CCOC(=O)N1CCN(C(=O)Cn2sc3nc(C)cc(C)c3c2=O)CC1 [YMU1, reference compound]
42
CC(C)(C)OC(=O)N1CCN(C(=O)Cn2sc3cc(Br)ccc3c2=O)CC1 [I-d-10]
56
CC(C)(C)OC(=O)N1CCN(C(=O)Cn2sc3ncccc3c2=O)CC1 [I-a-1]
77
CCOC(=O)N1CCN(C(=O)Cn2sc3ccccc3c2=O)CC1 [I-d-1]
79
Cc1cc(C)c2c(=O)n(CC(=O)N3CCN(C(=O)OC(C)(C)C)CC3)sc2n1 [YMU2, reference compound]
46
CC(C)(C)OC(=O)N1CCN(C(=O)Cn2sc3ccc(F)cc3c2=O)CC1 [I-d-6]
87
CC(C)(C)OC(=O)N1CCN(C(=O)Cn2sc3cc(Cl)ccc3c2=O)CC1 [I-d-9]
55
O=C(Cn1sc2cc(Br)ccc2c1=O)N1CCNCC1 [I-f-2]
38
Cc1cc(N)nc2sn(CC(=O)N3CCN(C(=O)OC(C)(C)C)CC3)c(=O)c12 [I-a-3]
16
Cc1cc(O)nc2sn(CC(=O)N3CCN(C(=O)OC(C)(C)C)CC3)c(=O)c12 [I-a-5]
93
Cc1cc(C)c2c(=O)n(CC(=O)N3CCN(C(=O)CNC(=O)Nc4ccccc4)CC3)sc2n1 [I-b-2]
32
Cc1cc(C)c2c(=O)n(CC(=O)N3CCN(C(=O)CI)CC3)sc2n1 [I-b-3]
29
O=C(Cn1sc2ncccc2c1=O)N1CCN(C(=O)Oc2ccc([N+](=O)[O-])cc2)CC1 [I-a-2]
80
